molecular target: PD-1/PD-L1 interaction (PD-1-Ig / PD-L1-His) (Homo sapiens (Human), UniProt Q9NZQ7); assay: PD-1/PD-L1 Homogenous Time-Resolved Fluorescence (HTRF) binding assay; conditions: PD-1/PD-L1 HTRF binding assay; value given as range class; read-out: Range or IC50
Sequence (Q9NZQ7 other isoform, or with tags, fused parts or gaps): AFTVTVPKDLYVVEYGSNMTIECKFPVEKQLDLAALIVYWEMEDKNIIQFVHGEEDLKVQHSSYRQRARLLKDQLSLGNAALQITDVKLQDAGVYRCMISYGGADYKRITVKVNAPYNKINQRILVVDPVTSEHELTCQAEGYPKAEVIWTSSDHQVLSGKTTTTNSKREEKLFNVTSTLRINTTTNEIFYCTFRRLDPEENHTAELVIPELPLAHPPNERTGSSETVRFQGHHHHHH
pIC50: −log10 of the molar value. Where a name gives a salt, the structure may show the parent alone.
pIC50 for assorted molecules

// below: answered molecules
1. Cc1cc(CN[C@](C)(CO)C(=O)O)c(OCc2cncc(C#N)c2)cc1OCc1cccc(-c2ccc3c(c2)OCCO3)c1C#N
8.00 to 9.22
2. Cc1cc(OCc2cccc(-c3ccc4c(c3)OCCO4)c2C)cc(OCc2cccc(C#N)c2)c1CN[C@H](CO)C(=O)O
8.00 to 9.22
3. Cc1c(COc2cc(OCc3cncc(C#N)c3)c(CN3CCCC[C@H]3C(=O)O)cc2Cl)cccc1-c1ccc2c(c1)OCCO2 [Example 1253, TFA salt]
8.00 to 9.22

Shift focus to the following entry.
Recorded result, `CC(=O)NCCNCc1ccc(OCc2cccc(-c3ccccc3)c2C)cc1OCc1ccc(F)cc1F` , pIC50: 4.70 to 7.00

###

biological target: PD-1/PD-L1 interaction (PD-1-Ig / PD-L1-His) (Homo sapiens (Human), UniProt Q9NZQ7); assay: PD-1/PD-L1 Homogenous Time-Resolved Fluorescence (HTRF) binding assay; details: PD-1/PD-L1 HTRF binding assay; value given as range class; read-out: Range or IC50
outcome.measure: IC50

// below: answered compounds
1. CC(=O)NCCNCc1ccc(OCc2cccc(-c3ccccc3)c2C)cc1OCc1cccc(F)c1F [Example 1071]
100 to 20000 nM
2. COc1cc(OCc2cccc(-c3ccccc3)c2C)cc(OCc2cccc(C#N)c2)c1CNC[C@@H](O)CC(=O)O [Example 1133]
0.6 to 10 nM
3. CC(=O)NCCNCc1ccc(OCc2cccc(-c3ccccc3)c2C)cc1OCc1ccncn1 [Example 1100]
100 to 20000 nM
4. Cc1c(COc2ccc(CNC[C@@H](O)CC(=O)O)c(OCc3cccc(C#N)c3)c2Cl)cccc1-c1ccc2c(c1)OCCO2 [Example 1240]
100 to 20000 nM
5. Cc1c(COc2cc(OCc3cccc(C#N)c3)c(CN[C@@H](CCCCN(C)C)C(=O)O)cc2Cl)cccc1-c1ccc2c(c1)OCCO2 [Example 1173]
0.6 to 10 nM

Recorded result, CC(=O)NCCNCc1cc(C)c(OCc2cccc(-c3ccc4c(c3)OCCO4)c2C)cc1OCc1cccc(C#N)c1 [Example 1264] , IC50: 0.6 to 10 nM

Recorded result, COc1cc(COc2cc(OCc3cccc(-c4ccccc4)c3C)ccc2CNCCNC(C)=O)cc(OC)c1 [Example 1107] , IC50: 100 to 20000 nM

Recorded result, CC(=O)NCCNCc1ccc(OCc2cccc(-c3ccccc3)c2C)cc1OCc1cc(F)ccc1F [Example 1060] , IC50: 100 to 20000 nM

Recorded result, Cc1c(COc2cc(OCc3cccc(C#N)c3)c(CNC(Cc3cn(C)c4ccccc34)C(=O)O)cc2Cl)cccc1-c1ccc2c(c1)OCCO2 (centres unmarked) [Example 1168] , IC50: 100 to 20000 nM

###

pIC50 for assorted compounds
biological target: PD-1/PD-L1 interaction (PD-1-Ig / PD-L1-His) (Homo sapiens (Human), UniProt Q9NZQ7); experiment: PD-1/PD-L1 Homogenous Time-Resolved Fluorescence (HTRF) binding assay; conditions: PD-1/PD-L1 HTRF binding assay; value given as range class; read-out: Range or IC50
pIC50: −log10 of the molar value.

Recorded result, Cc1c(COc2ccc(CN[C@@H](CO)CC(=O)O)c(OCc3cccc(C#N)c3)c2)cccc1-c1ccccc1 [Example 1022] , pIC50: 8.00 to 9.22

###

target: PD-1/PD-L1 interaction (PD-1-Ig / PD-L1-His) (Homo sapiens (Human)); test: PD-1/PD-L1 Homogenous Time-Resolved Fluorescence (HTRF) binding assay; details: PD-1/PD-L1 HTRF binding assay; value given as range class; read-out: Range or IC50
pIC50: −log10 of the molar value.
pIC50 for assorted compounds

// below: answered compounds
1. CC(=O)NCCNCc1ccc(OCc2cccc(-c3ccccc3)c2C)cc1OCc1cccc(Oc2ccccc2F)c1
4.70 to 7.00
2. COC(=O)CCCOc1cc(OCc2cccc(-c3ccccc3)c2C)ccc1CNCCNC(C)=O
4.70 to 7.00
3. CC(=O)NCCNCc1ccc(OCc2cccc(-c3ccccc3)c2C)cc1OCc1ccc(F)c(Cl)c1
4.70 to 7.00
4. CC(=O)NCCNCc1ccc(OCc2cccc(-c3ccccc3)c2C)cc1OCc1ccncc1
7.00 to 8.00

Recorded result, `Cc1c(COc2cc(OCc3cccc(C#N)c3)c(CN[C@@H](CCS(C)(=O)=O)C(=O)O)cc2Cl)cccc1-c1ccc2c(c1)OCCO2` , pIC50: 7.00 to 8.00

Recorded result, `CC(=O)NCCNCc1ccc(OCc2cccc(-c3ccccc3)c2C)cc1OCc1c(F)cccc1F` , pIC50: 4.70 to 7.00

Recorded result, `CC(=O)NCCNCc1ccc(OCc2cccc(-c3ccccc3)c2C)cc1OCc1ccc(C(C)(C)C)cc1` , pIC50: 4.70 to 7.00

###

target: PD-1/PD-L1 interaction (PD-1-Ig / PD-L1-His) (Homo sapiens (Human), UniProt Q9NZQ7); assay: PD-1/PD-L1 Homogenous Time-Resolved Fluorescence (HTRF) binding assay; settings: PD-1/PD-L1 HTRF binding assay; value given as range class; read-out: Range or IC50
pIC50: −log10 of the molar value.
outcome.measure: pIC50

1) Cc1c(C#N)cncc1COc1cc(OCc2cccc(-c3ccccc3)c2C)ccc1CN[C@H](CO)C(=O)O [Example 1324]
7.00 to 8.00
2) C[C@](CO)(NCc1cc(Cl)c(OCc2cccc(-c3ccc4c(c3)OCCO4)c2C#N)cc1OCc1cccc(C#N)c1)C(=O)O [Example 1241]
8.00 to 9.22
3) Cc1c(COc2cc(OCc3cncc(C#N)c3)c(CN3CCCC[C@H]3C(=O)O)cc2F)cccc1-c1ccc2c(c1)OCCO2 [Example 3002]
8.00 to 9.22
4) CC(=O)NCCNCc1ccc(OCc2cccc(-c3ccccc3)c2C)cc1OCC(N)=O [Example 1031]
4.70 to 7.00
5) CCc1cc(CN[C@](C)(CO)C(=O)O)c(OCc2cccc(C#N)c2)cc1OCc1cccc(-c2ccc3c(c2)OCCO3)c1C [Example 1291]
8.00 to 9.22
6) COc1cc(OCc2cccc(-c3ccccc3)c2C)cc(OCc2cccc(C#N)c2)c1CN[C@H](CO)C(=O)O [Example 1134]
8.00 to 9.22
7) CC(=O)NCCNCc1ccc(OCc2cccc(-c3ccccc3)c2C)cc1OCc1cccc(C)c1 [Example 1025]
4.70 to 7.00
8) Cc1cc(OCc2cccc(-c3ccc4c(c3)OCCO4)c2C)cc(OCc2cncc(C#N)c2)c1CN[C@H](CO)C(=O)O [Example 1007]
8.00 to 9.22

Recorded result, Cc1c(COc2cc(OCc3cccc(C#N)c3)c(CNC(CCS(C)(=O)=O)C(=O)O)cc2Cl)cccc1-c1ccc2c(c1)OCCO2 (stereo not drawn) [Example 1182] , pIC50: 8.00 to 9.22

Recorded result, Cc1c(COc2cc(OCc3cncc(C#N)c3)c(CN3CCCC[C@H]3C(=O)O)cc2Br)cccc1-c1ccc2c(c1)OCCO2 [Example 1319] , pIC50: 8.00 to 9.22

Recorded result, Cc1c(COc2cc(OCc3cccc(C#N)c3)c(CN[C@@](C)(CO)C(=O)O)cc2Br)cccc1-c1ccc2c(c1)OCCO2 [Example 1304] , pIC50: 8.00 to 9.22

Recorded result, Cc1c(COc2cc(OCc3cncc(C#N)c3)c(CNC[C@@H](O)CC(=O)O)cc2Br)cccc1-c1ccc2c(c1)OCCO2 [Example 1316] , pIC50: 8.00 to 9.22

Recorded result, C[C@@](CO)(NCc1ccc(OCc2cccc(-c3ccc4c(c3)OCCO4)c2Cl)cc1OCc1cccc(C#N)c1)C(=O)O [Example 1149] , pIC50: 8.00 to 9.22

Recorded result, N#Cc1cccc(COc2cc(OCc3cccc(-c4ccc5c(c4)OCCO5)c3C#N)c(Br)cc2CNC[C@@H](O)CC(=O)O)c1 [Example 1314] , pIC50: 8.00 to 9.22

Recorded result, Cc1cc(CN[C@@H](CO)C(=O)O)c(OCc2ccc(F)c(C#N)c2)cc1OCc1cccc(-c2ccc3c(c2)OCCO3)c1C [Example 1274] , pIC50: 8.00 to 9.22

Recorded result, Cc1cc(CN[C@@](C)(CO)C(=O)O)c(OCc2cncc(C#N)c2)cc1OCc1cccc(-c2ccc3c(c2)OCCO3)c1Cl [Example 1154] , pIC50: 8.00 to 9.22

Recorded result, Cc1c(COc2cc(OCc3cncc(C#N)c3)c(CNCCO)cc2Br)cccc1-c1ccc2c(c1)OCCO2 [Example 1322] , pIC50: 8.00 to 9.22

Recorded result, CC(=O)NCCNCc1ccc(OCc2cccc(-c3ccccc3)c2C)cc1OCc1cc(C(F)(F)F)cc(C(F)(F)F)c1 [Example 1061] , pIC50: 4.70 to 7.00

Recorded result, CC(=O)NCCNCc1ccc(OCc2cccc(-c3ccccc3)c2C)cc1OCc1cc(C(F)(F)F)ccc1F [Example 1080] , pIC50: 4.70 to 7.00

Recorded result, CC(=O)NCCNCc1ccc(OCc2cccc(-c3ccccc3)c2C)cc1OCCc1ccccc1 [Example 1033] , pIC50: 4.70 to 7.00

Recorded result, Cc1c(COc2ccc(CN[C@H](C(=O)O)[C@H](C)O)c(OCc3cccc(C#N)c3)c2)cccc1-c1ccccc1 [Example 1012] , pIC50: 7.00 to 8.00

Recorded result, Cc1c(COc2ccc(CN[C@@](C)(CO)C(=O)O)c(OCc3cccc(C#N)c3)c2)cccc1-c1ccccc1 [Example 1019] , pIC50: 8.00 to 9.22

Recorded result, Cc1c(COc2cc(OCc3cccc(C#N)c3)c(CNCCO)cc2Cl)cccc1-c1ccc2c(c1)OCCO2 [Example 1170] , pIC50: 8.00 to 9.22

Recorded result, CC(=O)NCCNCc1ccc(OCc2cccc(-c3ccccc3)c2C)cc1OCc1cccc(Oc2ccc(F)cc2)c1 [Example 1078] , pIC50: 4.70 to 7.00

Recorded result, Cc1c(COc2cc(OCc3cncc(C#N)c3)c(CN3CCCC[C@H]3C(=O)NS(C)(=O)=O)cc2Cl)cccc1-c1ccc2c(c1)OCCO2 [Example 1256] , pIC50: 8.00 to 9.22

Recorded result, Cc1c(COc2cc(OCc3cccc(C#N)c3)c(CN3C[C@H](F)C[C@H]3C(=O)O)cc2Cl)cccc1-c1ccc2c(c1)OCCO2 [Example 1215] , pIC50: 7.00 to 8.00

Recorded result, COc1cc(OCc2cccc(-c3ccccc3)c2C)cc(OCc2cccc(C#N)c2)c1CN[C@H](C(=O)O)[C@H](C)O [Example 1136] , pIC50: 8.00 to 9.22
